Data origin: ChEMBL document CHEMBL3085695

biological target: Sodium channel protein type 9 subunit alpha (Homo sapiens, UniProt Q15858); test: Modulation of human Nav1.7 by automated patch clamp electrophysiology assay
Sequence (Q15858 whole entry): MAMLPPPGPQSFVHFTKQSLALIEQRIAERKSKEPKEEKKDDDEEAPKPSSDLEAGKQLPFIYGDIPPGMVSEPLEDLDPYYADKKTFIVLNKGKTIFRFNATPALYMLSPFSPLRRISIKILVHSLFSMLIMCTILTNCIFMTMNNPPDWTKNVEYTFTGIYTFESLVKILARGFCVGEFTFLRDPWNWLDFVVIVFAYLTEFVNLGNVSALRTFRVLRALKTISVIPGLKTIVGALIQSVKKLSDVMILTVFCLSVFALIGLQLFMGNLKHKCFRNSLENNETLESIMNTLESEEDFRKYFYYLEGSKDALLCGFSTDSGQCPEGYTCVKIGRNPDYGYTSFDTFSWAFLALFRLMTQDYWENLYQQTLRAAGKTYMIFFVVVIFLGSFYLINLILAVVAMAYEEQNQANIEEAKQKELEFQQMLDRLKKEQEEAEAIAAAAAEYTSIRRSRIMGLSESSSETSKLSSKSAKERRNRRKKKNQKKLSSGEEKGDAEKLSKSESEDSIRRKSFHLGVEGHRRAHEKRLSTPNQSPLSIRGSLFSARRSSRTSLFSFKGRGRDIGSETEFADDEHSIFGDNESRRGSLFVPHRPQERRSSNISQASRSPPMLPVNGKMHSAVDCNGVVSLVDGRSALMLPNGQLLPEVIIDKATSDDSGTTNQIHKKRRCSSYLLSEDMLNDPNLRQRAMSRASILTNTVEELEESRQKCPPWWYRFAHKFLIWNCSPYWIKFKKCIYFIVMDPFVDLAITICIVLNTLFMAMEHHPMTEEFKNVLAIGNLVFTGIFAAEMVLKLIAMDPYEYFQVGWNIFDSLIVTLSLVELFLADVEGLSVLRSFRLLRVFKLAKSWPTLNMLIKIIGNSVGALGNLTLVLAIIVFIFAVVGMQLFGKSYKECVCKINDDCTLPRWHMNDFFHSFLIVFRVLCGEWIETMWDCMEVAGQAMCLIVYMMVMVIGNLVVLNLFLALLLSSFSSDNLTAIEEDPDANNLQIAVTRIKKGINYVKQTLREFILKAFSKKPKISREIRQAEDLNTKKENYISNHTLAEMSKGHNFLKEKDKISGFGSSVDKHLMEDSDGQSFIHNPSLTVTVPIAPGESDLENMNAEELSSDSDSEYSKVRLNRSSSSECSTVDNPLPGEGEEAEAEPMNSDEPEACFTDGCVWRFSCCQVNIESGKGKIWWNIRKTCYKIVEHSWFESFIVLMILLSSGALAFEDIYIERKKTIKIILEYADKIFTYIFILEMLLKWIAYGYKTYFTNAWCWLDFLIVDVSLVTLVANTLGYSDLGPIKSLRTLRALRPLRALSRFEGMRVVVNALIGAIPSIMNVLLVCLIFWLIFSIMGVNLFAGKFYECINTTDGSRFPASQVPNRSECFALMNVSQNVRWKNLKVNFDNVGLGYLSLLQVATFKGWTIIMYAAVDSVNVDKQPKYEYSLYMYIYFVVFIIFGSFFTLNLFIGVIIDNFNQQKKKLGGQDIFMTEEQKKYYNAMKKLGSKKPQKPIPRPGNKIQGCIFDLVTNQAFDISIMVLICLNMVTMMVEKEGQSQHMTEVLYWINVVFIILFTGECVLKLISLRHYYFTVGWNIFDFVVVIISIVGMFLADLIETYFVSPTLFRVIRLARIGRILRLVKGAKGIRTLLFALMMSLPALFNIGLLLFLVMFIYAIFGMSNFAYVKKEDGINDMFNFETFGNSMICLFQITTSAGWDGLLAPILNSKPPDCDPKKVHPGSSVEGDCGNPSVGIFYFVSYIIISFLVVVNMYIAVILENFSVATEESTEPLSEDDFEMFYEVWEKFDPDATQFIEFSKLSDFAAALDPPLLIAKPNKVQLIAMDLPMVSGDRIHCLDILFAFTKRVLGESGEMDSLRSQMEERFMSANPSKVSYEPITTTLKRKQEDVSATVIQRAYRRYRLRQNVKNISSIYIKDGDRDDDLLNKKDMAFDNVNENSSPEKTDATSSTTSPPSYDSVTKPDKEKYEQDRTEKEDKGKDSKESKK
measure: IC50 (µM)

>>> experimental_value("Nc1nc2c(s1)CC(CNC(=O)c1ccc[nH]1)CC2 (stereo unspecified)")
20
>>> experimental_value("Nc1nc2c(s1)CC(CNC(=O)c1cc(Br)c(Br)[nH]1)CC2 (stereo unspecified)")
23
>>> experimental_value("Nc1nc2c(s1)C[C@@H](NC(=O)c1cc(Br)c[nH]1)CC2")
18
>>> experimental_value("Nc1nc2c(s1)C[C@@H](NCc1ccc[nH]1)CC2")
21
>>> experimental_value("Nc1nc2c(s1)C[C@@H](NC(=O)c1ccc[nH]1)CC2")
21

====

molecular target: Sodium channel protein type 4 subunit alpha (Homo sapiens); experiment: Modulation of human Nav1.4 by automated patch clamp electrophysiology assay
measure: IC50

>>> experimental_value("Nc1nc2c(s1)CC(CNC(=O)[C@@H]1CCCN1)CC2 (stereo partly drawn)")
"> 30 µM"
>>> experimental_value("Nc1nc2c(s1)C[C@@H](NC(=O)c1cc(Br)c[nH]1)CC2")
"> 30 µM"
>>> experimental_value("Nc1nc2c(s1)CC(CNC(=O)c1ccc[nH]1)CC2 (stereo not drawn)")
"> 30 µM"

====

biological target: Sodium channel protein type 3 subunit alpha (Homo sapiens, UniProt Q9NY46); assay: Modulation of human Nav1.3 by automated patch clamp electrophysiology assay
pIC50: −log10 of the molar value.
measure: pIC50

>>> experimental_value("Nc1nc2c(s1)C[C@@H](NC(=O)c1cc(Br)c(Br)[nH]1)CC2")
4.59
>>> experimental_value("Nc1nc2c(s1)C[C@@H](NC(=O)c1cc(Br)c[nH]1)CC2")
4.59
>>> experimental_value("Nc1nc2c(s1)C[C@@H](NC(=O)c1ccco1)CC2")
4.57
>>> experimental_value("CC(C)(C)OC(=O)N1CCC[C@H]1C(=O)NCC1CCc2nc(N)sc2C1 (stereo partly specified)")
4.59
>>> experimental_value("Nc1nc2c(s1)CC(CNC(=O)c1cc3ccccc3[nH]1)CC2 (stereo unspecified)")
4.80
>>> experimental_value("Nc1nc2c(s1)CC(CNC(=O)c1ccc[nH]1)CC2 (stereo unspecified)")
4.55
>>> experimental_value("Nc1nc2c(s1)C[C@@H](NCc1ccc[nH]1)CC2")
4.60

====

# IC50 per entry
molecular target: Sodium channel protein type 5 subunit alpha (Homo sapiens); experiment: Modulation of human Nav1.5 by automated patch clamp electrophysiology assay
measure: IC50

>>> experimental_value("Nc1nc2c(s1)C[C@@H](NC(=O)c1cc3ccccc3[nH]1)CC2")
"> 30 µM"
>>> experimental_value("Nc1nc2c(s1)C[C@@H](NC(=O)[C@@H]1CCCN1)CC2")
"> 30 µM"
>>> experimental_value("Nc1nc2c(s1)CC(CNC(=O)c1ccc[nH]1)CC2 (stereo unspecified)")
"21 µM"
>>> experimental_value("CC(C)(C)OC(=O)N1CCC[C@H]1C(=O)NCC1CCc2nc(N)sc2C1 (stereo partly specified)")
"20 µM"
>>> experimental_value("Nc1nc2c(s1)C[C@@H](NC(=O)c1ccc[nH]1)CC2")
"> 30 µM"
>>> experimental_value("Nc1nc2c(s1)CC(CNC(=O)[C@@H]1CCCN1)CC2 (stereo partly specified)")
"> 30 µM"
>>> experimental_value("Nc1nc2c(s1)CC(CNC(=O)c1cc3ccccc3[nH]1)CC2 (stereo unspecified)")
"> 30 µM"
>>> experimental_value("Nc1nc2c(s1)C[C@@H](NC(=O)c1cc(Br)c(Br)[nH]1)CC2")
"> 30 µM"
>>> experimental_value("CC(C)(C)OC(=O)N1CCC[C@H]1C(=O)N[C@H]1CCc2nc(N)sc2C1")
"> 30 µM"
>>> experimental_value("Nc1nc2c(s1)C[C@@H](NCc1ccc[nH]1)CC2")
"> 30 µM"
>>> experimental_value("Nc1nc2c(s1)C[C@@H](NC(=O)c1ccco1)CC2")
"> 30 µM"

====

target: Sodium channel protein type 9 subunit alpha (Homo sapiens); assay: Modulation of human Nav1.7 by automated patch clamp electrophysiology assay
List of IC50 values.
measure: IC50 (µM)

>>> experimental_value("Nc1nc2c(s1)CC(CNC(=O)c1cc3ccccc3[nH]1)CC2 (stereo not drawn)")
23
>>> experimental_value("Nc1nc2c(s1)C[C@@H](NC(=O)c1cc3ccccc3[nH]1)CC2")
29
>>> experimental_value("Nc1nc2c(s1)C[C@@H](NC(=O)c1cc(Br)c(Br)[nH]1)CC2")
16

====

target: Sodium channel protein type 4 subunit alpha (Homo sapiens, UniProt P35499); experiment: Modulation of human Nav1.4 by automated patch clamp electrophysiology assay
Sequence (P35499 whole entry): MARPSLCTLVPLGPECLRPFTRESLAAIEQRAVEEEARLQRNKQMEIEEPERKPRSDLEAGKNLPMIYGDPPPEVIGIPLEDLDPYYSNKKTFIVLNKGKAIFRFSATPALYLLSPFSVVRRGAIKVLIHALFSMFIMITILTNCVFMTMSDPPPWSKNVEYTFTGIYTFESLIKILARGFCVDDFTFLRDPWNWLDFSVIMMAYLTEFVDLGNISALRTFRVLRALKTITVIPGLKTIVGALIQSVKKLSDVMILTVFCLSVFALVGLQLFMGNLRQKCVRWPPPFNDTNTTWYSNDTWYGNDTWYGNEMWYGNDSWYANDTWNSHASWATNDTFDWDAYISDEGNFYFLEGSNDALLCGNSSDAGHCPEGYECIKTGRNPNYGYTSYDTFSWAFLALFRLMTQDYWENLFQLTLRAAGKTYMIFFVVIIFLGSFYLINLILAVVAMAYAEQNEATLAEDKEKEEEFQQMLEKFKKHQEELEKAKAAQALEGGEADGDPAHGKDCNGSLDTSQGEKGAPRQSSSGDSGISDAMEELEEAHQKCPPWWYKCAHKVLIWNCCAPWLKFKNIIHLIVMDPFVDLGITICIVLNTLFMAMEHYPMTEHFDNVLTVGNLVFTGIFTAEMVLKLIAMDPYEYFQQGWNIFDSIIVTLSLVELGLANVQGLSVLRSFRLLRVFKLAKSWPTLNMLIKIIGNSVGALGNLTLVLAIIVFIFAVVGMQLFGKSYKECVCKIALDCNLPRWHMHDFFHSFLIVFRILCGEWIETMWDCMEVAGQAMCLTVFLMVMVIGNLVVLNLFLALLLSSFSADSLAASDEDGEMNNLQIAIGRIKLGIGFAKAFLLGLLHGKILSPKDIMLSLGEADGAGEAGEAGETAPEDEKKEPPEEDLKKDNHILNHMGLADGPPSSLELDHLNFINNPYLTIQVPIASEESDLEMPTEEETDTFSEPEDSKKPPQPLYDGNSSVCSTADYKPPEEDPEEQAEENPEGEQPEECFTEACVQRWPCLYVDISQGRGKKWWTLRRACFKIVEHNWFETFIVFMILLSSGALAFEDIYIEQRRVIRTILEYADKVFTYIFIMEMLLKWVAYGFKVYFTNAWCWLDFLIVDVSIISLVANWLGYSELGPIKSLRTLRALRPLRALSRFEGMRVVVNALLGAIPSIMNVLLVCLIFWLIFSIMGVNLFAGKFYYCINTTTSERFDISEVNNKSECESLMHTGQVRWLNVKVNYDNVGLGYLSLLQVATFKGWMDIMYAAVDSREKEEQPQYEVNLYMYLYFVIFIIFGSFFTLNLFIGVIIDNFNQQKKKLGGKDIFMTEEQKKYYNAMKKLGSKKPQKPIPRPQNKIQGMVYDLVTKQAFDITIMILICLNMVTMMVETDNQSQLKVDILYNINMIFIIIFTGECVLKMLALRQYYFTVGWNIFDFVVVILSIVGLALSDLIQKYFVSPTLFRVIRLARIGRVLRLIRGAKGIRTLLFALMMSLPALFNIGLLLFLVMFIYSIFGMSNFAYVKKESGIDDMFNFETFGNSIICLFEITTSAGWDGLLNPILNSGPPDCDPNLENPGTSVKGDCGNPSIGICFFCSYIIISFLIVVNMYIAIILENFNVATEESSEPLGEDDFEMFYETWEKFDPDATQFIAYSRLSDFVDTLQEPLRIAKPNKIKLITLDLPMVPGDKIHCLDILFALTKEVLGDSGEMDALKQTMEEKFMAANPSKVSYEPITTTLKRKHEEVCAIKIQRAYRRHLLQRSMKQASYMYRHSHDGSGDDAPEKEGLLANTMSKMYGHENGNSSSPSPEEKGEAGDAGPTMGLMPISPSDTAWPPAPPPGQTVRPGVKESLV
pIC50: −log10 of the molar value.
Attribute: pIC50
measure: pIC50

>>> experimental_value("Nc1nc2c(s1)C[C@@H](NC(=O)c1cc3ccccc3[nH]1)CC2")
4.80
>>> experimental_value("CC(C)(C)OC(=O)N1CCC[C@H]1C(=O)N[C@H]1CCc2nc(N)sc2C1")
5.10
>>> experimental_value("Nc1nc2c(s1)C[C@@H](NC(=O)[C@@H]1CCCN1)CC2")
4.60
>>> experimental_value("Cn1cccc1C(=O)N[C@H]1CCc2nc(N)sc2C1")
4.80
>>> experimental_value("Nc1nc2c(s1)CC(CNC(=O)c1cc3ccccc3[nH]1)CC2 (centres undefined)")
4.68

====

biological target: Sodium channel protein type 3 subunit alpha (Homo sapiens, UniProt Q9NY46); experiment: Modulation of human Nav1.3 by automated patch clamp electrophysiology assay
pIC50: −log10 of the molar value.
measure: pIC50

>>> experimental_value("Nc1nc2c(s1)C[C@@H](NC(=O)c1ccc[nH]1)CC2")
"< 4.52"
>>> experimental_value("Nc1nc2c(s1)C[C@@H](NC(=O)c1cc3ccccc3[nH]1)CC2")
"< 4.52"
>>> experimental_value("Nc1nc2c(s1)C[C@@H](NC(=O)[C@@H]1CCCN1)CC2")
"< 4.52"
>>> experimental_value("Nc1nc2c(s1)CC(CNC(=O)[C@@H]1CCCN1)CC2 (some centres undefined)")
"< 4.52"
